experiment: in vivo; details: Sprague-Dawley, rat, kidney, inhaled, 2 mg/kg
metric_name: concentration at 2 h (ng/g)
One number for each entry, in ng/g.

Ask | GET /values?readout=concentration at 2 h&item= CC[C@H](C)C[C@H](C)CCCCCCCCC(=O)N[C@H]1C[C@@H](O)[C@@H](NCCN)NC(=O)[C@@H]2[C@@H](O)CCN2C(=O)[C@H]([C@H](O)CCN)NC(=O)[C@H]([C@H](O)[C@@H](O)c2ccc(O)cc2)NC(=O)[C@@H]2C[C@@H](O)CN2C(=O)[C@H]([C@@H](C)O)NC1=O
Reply | 160

====

assay: in vivo; conditions: Sprague-Dawley, rat, liver, inhaled, 2 mg/kg
metric_name: concentration at 2 h (ng/g)
Numbers only, in ng/g.

Ask | Which value of concentration at 2 h has been reported for CC[C@H](C)C[C@H](C)CCCCCCCCC(=O)N[C@H]1C[C@@H](O)[C@@H](NCCN)NC(=O)[C@@H]2[C@@H](O)CCN2C(=O)[C@H]([C@H](O)CCN)NC(=O)[C@H]([C@H](O)[C@@H](O)c2ccc(O)cc2)NC(=O)[C@@H]2C[C@@H](O)CN2C(=O)[C@H]([C@@H](C)O)NC1=O in the records?
Reply | 130
